protocol_notes: In vivo dose escalation, rat (oral)
applied_conditions: Dose 10 mg/Kg
A collection of molecules and their measured bioavailability

[
  {
    "molecule": "Cc1cc(-c2cnc3cc(-c4ccc(N5CCNCC5)cc4)ccn23)c2cc(F)cc(F)c2n1 [Compound 17]",
    "bioavailability (%)": 32.2
  },
  {
    "molecule": "Cc1cc(-c2cnc3cc(-c4ccc(N5CCNCC5)cc4)ccn23)c2cc(F)ccc2n1 [Compound 20]",
    "bioavailability (%)": 49
  }
]

###

protocol_notes: in vitro
applied_conditions: dog, microsomes

[
  {
    "molecule": "Cc1cc(-c2cnc3cc(-c4ccc(N5CCNCC5)cc4)ccn23)c2cc(F)cc(F)c2n1 [Compound 17]",
    "microsomal CLint / µL/min/mg": 86
  },
  {
    "molecule": "Cc1cc(-c2cnc3cc(-c4ccc(N5CCNCC5)cc4)ccn23)c2ccccc2n1 [Compound 25]",
    "microsomal CLint / µL/min/mg": 123
  },
  {
    "molecule": "Cc1cc(-c2cnc3cc(-c4ccc(N5CCNCC5)cc4)ccn23)c2cc(F)ccc2n1 [Compound 20]",
    "microsomal CLint / µL/min/mg": 116
  }
]
